Documented Solubility Dulbecco's PBS pH 7.4 across a set of compounds
Write down the numeric answer in μM and omit the unit.

Solved entries:
>>> result_number("COc1c(C)cc2c(c1O)[C@@H]1C3[C@@H]4SC[C@]5(NC(C)Cc6c5[nH]c5ccccc65)C(=O)COC[C@@H](c5c6c(c(C)c(OC(C)=O)c54)OCO6)N3[C@@H](O)[C@H](C2)N1C (stereo partly shown) [Compound 43]")
5.85
>>> result_number("COc1c(C)cc2c(c1O)[C@@H]1C3[C@@H]4SC[C@]5(NC(C)Cc6c5[nH]c5ccccc65)C(=O)COC[C@@H](c5c6c(c(C)c(OC(C)=O)c54)OCO6)N3[C@@H](O)[C@H](C2)N1C (stereo partly shown) [Compound 44]")
20.69

Field request: Solubility Dulbecco's PBS pH 7.4 | item: COc1c(C)cc2c(c1O)[C@@H]1C3[C@@H]4SC[C@]5(NC(C)Cc6c5[nH]c5ccc(F)cc65)C(=O)COC[C@@H](c5c6c(c(C)c(OC(C)=O)c54)OCO6)N3[C@@H](O)[C@H](C2)N1C (stereo partly shown) [Compound 42]
10.37

Source listed as patent US7763615B2.
